Just for reference, BigSolDB 2.1 is where these values come from.

- experimental.setup: in 1,4-dioxane, 303.15 K
property.name: solubility (mole fraction)
// return just the number, without any unit appended

Form: molecule = O=C(O)[C@@H]1C[C@@H](O)CN1 ; solubility (mole fraction) = 0.00108

====

- experimental.setup: in ethanol, 308.15 K
property.name: solubility (mole fraction)
// return just the number, without any unit appended

Form: molecule = O=C(O)[C@@H]1C[C@@H](O)CN1 ; solubility (mole fraction) = 0.000273

====

- experimental.setup: in acetonitrile, 328.15 K
property.name: solubility (mole fraction)
// return just the number, without any unit appended

Form: compound = O=C(O)[C@@H]1C[C@@H](O)CN1 ; solubility (mole fraction) = 0.000358
